Target: purified TAP-HOG1 (Arabidopsis thaliana, UniProt O23255)
Construct: Protein A (ProtA part of the TAP tag, TEV site between ProtA and CBP) (N, cleaved yes); made in house; host or cells: transgenic Arabidopsis thaliana harbouring 35S:TAP-HOG1
Sequence (O23255 other isoform, or with tags, fused parts or gaps with the stated changes): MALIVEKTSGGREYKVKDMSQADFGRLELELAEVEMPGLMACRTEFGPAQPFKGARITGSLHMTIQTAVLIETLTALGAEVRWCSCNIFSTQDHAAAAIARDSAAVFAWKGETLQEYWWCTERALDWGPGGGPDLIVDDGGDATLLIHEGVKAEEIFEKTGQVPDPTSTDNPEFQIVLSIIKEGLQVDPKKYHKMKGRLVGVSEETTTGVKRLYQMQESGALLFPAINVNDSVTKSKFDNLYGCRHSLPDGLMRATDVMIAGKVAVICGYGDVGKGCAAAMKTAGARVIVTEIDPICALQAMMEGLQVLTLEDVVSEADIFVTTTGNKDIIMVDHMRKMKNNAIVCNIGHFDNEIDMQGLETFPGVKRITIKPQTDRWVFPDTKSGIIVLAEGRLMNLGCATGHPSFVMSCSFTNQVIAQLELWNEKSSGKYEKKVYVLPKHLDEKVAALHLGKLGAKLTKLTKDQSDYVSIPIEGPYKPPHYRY
Assay: biochemical
Type: binding
Settings: ITC, ligand injected into purified TAP-HOG1; KD = 1/KA; read-out: KD (dissociation constant)
pKd: −log10 of the molar value.

- compound: "c1ccc(CNc2ncnc3nc[nH]c23)cc1 [benzyladenine]"
  pKd: 7.69

----------
Target: purified TAP-HOG1 (Arabidopsis thaliana, UniProt O23255)
Construct: Protein A (ProtA part of the TAP tag, TEV site between ProtA and CBP) (N, cleaved yes); made in house; host or cells: transgenic Arabidopsis thaliana harbouring 35S:TAP-HOG1
Assay: biochemical
Format: binding

- compound_structure: "C/C(=C\\CNc1ncnc2[nH]cnc12)CO"
  measurement_target: "purified TAP-HOG1 (Arabidopsis thaliana, UniProt O23255)"
  Kd: "16.9 to 20.6 nM"

----------
Reported values of pKd for individual entries
Molecular target: purified TAP-HOG1 (Arabidopsis thaliana)
Construct: Protein A (ProtA part of the TAP tag, TEV site between ProtA and CBP) (N, cleaved yes); made in house; host or cells: transgenic Arabidopsis thaliana harbouring 35S:TAP-HOG1
Assay: biochemical
Assay type: binding
Settings: ITC, control molecules, purified TAP-HOG1; read-out: KD (dissociation constant)
Procedure: Cytokinin binding affinity and thermodynamic analysis of the interaction between HOG1 and cytokinins was examined by ITC (MCSITC, Microcal, Northampton, USA). […] Data were analyzed by MICROCAL ORIGIN version 2.9 using the best-fit, nonlinear least-squares method for one binding site. The binding stoichiometry (n), and association constant (KA) were calculated from the fitted curves. Subsequently, KD was calculated as 1/KA. […]
pKd: −log10 of the molar value.
measurement_kind: pKd

- compound_structure: "NC(=O)c1ccc[n+]([C@@H]2O[C@H](COP(=O)([O-])OP(=O)(O)OC[C@H]3O[C@@H](n4cnc5c(N)ncnc54)[C@H](O)[C@@H]3O)[C@@H](O)[C@H]2O)c1"
  measurement_kind: "pKd"
  measured: 4.40
- compound_structure: "Nc1ncnc2nc[nH]c12"
  measurement_kind: "pKd"
  measured: 5.68
